- TESTED_TARGET: Protein skinhead-1 (Caenorhabditis elegans, UniProt P34707)
- Sequence (P34707 whole entry): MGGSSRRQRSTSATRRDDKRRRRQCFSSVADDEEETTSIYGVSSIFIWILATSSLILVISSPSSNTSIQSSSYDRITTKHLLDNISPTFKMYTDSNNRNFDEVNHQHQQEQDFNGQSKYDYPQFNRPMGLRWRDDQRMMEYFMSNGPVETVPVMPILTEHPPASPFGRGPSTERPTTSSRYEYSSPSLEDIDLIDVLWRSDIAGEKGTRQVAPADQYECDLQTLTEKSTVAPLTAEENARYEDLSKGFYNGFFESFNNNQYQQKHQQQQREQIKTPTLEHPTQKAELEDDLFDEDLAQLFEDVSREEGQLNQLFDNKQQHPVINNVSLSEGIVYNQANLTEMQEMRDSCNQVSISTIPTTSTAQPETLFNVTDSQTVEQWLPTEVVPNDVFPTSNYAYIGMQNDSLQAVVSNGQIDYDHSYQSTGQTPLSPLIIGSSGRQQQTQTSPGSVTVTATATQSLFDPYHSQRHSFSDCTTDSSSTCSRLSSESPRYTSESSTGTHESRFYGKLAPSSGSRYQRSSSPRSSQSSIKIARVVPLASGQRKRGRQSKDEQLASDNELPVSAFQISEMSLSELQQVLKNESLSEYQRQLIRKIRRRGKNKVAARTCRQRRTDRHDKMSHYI
- Type: functional
Activity calls are given as the source filed them.
Response enum: active, inactive

Cc1cc(/C=C(\C#N)C(=O)Nc2ccc(F)cc2)c(C)n1-c1ccc(N2CCOCC2)c([N+](=O)[O-])c1: inactive

Next molecule, please.
input: Given CCOc1ccc(Nc2ccc([N+](=O)[O-])c3nonc23)cc1 , state the outcome it received in this test.
output: inactive

----------
- TESTED_TARGET: DNA dC->dU-editing enzyme APOBEC-3G (Homo sapiens, UniProt Q9HC16)
- Sequence (Q9HC16 whole entry): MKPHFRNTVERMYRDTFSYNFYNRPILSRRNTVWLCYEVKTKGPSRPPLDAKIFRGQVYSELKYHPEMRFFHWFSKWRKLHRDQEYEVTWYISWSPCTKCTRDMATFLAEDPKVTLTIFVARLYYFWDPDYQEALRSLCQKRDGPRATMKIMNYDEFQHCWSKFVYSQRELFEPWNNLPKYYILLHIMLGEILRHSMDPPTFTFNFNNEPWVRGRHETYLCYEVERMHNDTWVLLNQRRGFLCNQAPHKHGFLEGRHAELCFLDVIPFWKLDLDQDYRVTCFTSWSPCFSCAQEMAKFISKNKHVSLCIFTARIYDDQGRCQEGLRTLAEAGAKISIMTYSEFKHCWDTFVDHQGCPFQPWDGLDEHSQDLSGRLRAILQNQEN
- PROTOCOL_SUMMARY: Dose Response confirmation of small molecule APOBEC3G DNA Deaminase Inhibitors via a fluorescence-based single-stranded DNA deaminase assay. [Related pubchem assays (depositor defined):AID493012, AID493028]
- Type: functional
Calls of active or inactive are those of the source.
QUANTITY: IC50

Cc1ccc(-c2n[nH]c(=S)n2C)cc1Cl: 4.34 µM (active)
Sc1nnc(-c2cccnc2)n1/N=C/c1ccccc1: 2.02 µM (active)
N#CC1=C2SCN(c3ccccc3)CN2C(=O)CC1c1cccs1 (stereo unspecified): 7.25 µM (active)
CCCCC(=O)Nc1sc(C(=O)N(CC)CC)c(C)c1C(=O)OC: 49.6 µM (active)
CCn1c(S)nnc1-c1cc2c(C(F)(F)F)nn(C)c2s1: 3.06 µM (active)

Now take the following molecule into account.
input: What value of IC50 has been reported for the following molecule? CCn1c(-c2cccc(Cl)c2)n[nH]c1=S
output: 6.09 µM (active)

----------
- TESTED_TARGET: Corticotropin-releasing factor receptor 2/Corticotropin-releasing factor-binding protein (Homo sapiens, UniProt P24387+Q13324)
- Sequence (Q13324 whole entry): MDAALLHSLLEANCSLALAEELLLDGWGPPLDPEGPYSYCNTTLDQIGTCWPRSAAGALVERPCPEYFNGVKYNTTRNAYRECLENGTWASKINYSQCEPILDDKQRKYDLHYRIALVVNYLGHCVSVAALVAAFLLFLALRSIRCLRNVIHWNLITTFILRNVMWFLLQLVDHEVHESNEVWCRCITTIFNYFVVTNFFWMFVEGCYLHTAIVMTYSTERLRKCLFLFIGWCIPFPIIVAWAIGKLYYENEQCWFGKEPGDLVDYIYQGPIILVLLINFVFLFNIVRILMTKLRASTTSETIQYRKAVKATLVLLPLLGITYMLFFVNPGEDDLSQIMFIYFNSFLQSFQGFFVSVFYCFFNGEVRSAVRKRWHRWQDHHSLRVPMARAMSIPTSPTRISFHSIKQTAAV
- Sequence (P24387 whole entry): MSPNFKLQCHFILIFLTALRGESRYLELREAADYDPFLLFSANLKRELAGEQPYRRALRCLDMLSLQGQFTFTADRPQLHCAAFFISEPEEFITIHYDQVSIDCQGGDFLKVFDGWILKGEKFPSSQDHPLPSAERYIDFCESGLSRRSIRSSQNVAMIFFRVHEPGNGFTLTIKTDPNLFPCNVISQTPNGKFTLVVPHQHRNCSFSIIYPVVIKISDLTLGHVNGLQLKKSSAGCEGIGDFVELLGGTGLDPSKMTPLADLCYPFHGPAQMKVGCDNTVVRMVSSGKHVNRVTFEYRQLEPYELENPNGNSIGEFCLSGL
- PROTOCOL_SUMMARY: activators of CRF receptor 2 with binding protein – uHTS hits, confirmation (AID 602473)
- Type: functional
- CONDITION_DESCRIPTION: read-out: EC50_Mean
Activity calls are given as the source filed them.
Below is a list of entries, each paired with its recorded EC50 value.

Before answering, review these 4 worked examples.
O=C(CCCCl)Oc1ccc2cc(-c3ccc4ccccc4n3)c(=O)oc2c1: 13.7 µM (active)
NS(=O)(=O)c1ccc(CCNC(=O)COC(=O)CCc2c[nH]c3ccccc23)cc1: 22 µM (active)
CCCCN(C(=O)c1ccc2c(c1)S(=O)(=O)N=C1CCCCCN12)c1c(N)n(CCCC)c(=O)[nH]c1=O: > 53 µM (inactive)
COc1cccc(CNc2ccc([N+](=O)[O-])cc2C)c1: > 53 µM (inactive)

Now take the following compound into account.
input: What value of EC50 has been reported for the following compound? O=C(CC(CC(=O)c1ccccc1)c1ccncc1)c1ccccc1
output: > 53 µM (inactive)

The origin of these recorded values is ChEMBL document CHEMBL1201862.
